Values were extracted from patent US12421193B2.

biological target: recombinant human GPR52 (Homo sapiens); experiment: TR-FRET cAMP assay (LANCE Ultra cAMP Kit), GPR52 activity; details: Flp-In-CHO cells stably expressing recombinant human GPR52; cAMP production, normalized to the positive control
Sequence (Q9Y2T5 whole entry): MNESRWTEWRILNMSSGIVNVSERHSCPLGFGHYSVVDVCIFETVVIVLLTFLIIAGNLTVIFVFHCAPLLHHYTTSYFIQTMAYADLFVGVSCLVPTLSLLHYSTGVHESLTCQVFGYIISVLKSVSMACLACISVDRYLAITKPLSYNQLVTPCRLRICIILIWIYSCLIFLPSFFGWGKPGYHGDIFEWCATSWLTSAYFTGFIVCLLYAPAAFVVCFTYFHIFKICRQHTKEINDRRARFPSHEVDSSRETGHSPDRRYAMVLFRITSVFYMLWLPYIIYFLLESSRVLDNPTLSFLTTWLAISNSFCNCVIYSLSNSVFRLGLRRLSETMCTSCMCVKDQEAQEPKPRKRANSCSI
Counter-ions that a name gives are not always drawn.
quantity measured: EC50

Entry Cc1cc(-c2cc(COc3cccc(Cl)c3F)ccn2)ccc1C(N)=O , EC50 reported as 25 to 100 nM

Entry Cc1cc(-c2ccnc(COc3ccc(C#N)c(F)c3)n2)ccc1C(N)=O , EC50 reported as 101 to 1000 nM

Entry COc1ccc(OCc2cncc(-c3ccc(C(N)=O)c(C)c3)c2)cc1 , EC50 reported as 25 to 100 nM

Entry CC(=O)Nc1cccc(OCc2ccnc(-c3ccc(C(N)=O)c(C)c3)c2)c1 , EC50 reported as 101 to 1000 nM

Entry Cc1cc(-c2cc(COc3ccc(C#N)c(F)c3)ccn2)ccc1C(N)=O [Example 4, hydrochloride] , EC50 reported as 25 to 100 nM

Entry COc1cc(OCc2cncc(-c3ccc(C(N)=O)c(C)c3)c2)ccc1C#N , EC50 reported as 101 to 1000 nM

Entry Cc1cc(-c2cc(COc3ccc(Cl)cc3)ccn2)ccc1C(N)=O , EC50 reported as > 1000 nM

Entry Cc1cc(-c2cc(COc3cccc(F)c3F)ccn2)ccc1C(N)=O , EC50 reported as 25 to 100 nM

Entry Cc1cc(-c2cc(COc3ccccc3C(F)(F)F)ccn2)ccc1C(N)=O , EC50 reported as 101 to 1000 nM

Entry Cc1cc(-c2ccnc(COc3ccc4c(c3)OCC4)c2)ccc1C(N)=O , EC50 reported as < 25 nM

Entry CSc1ccccc1OCc1ccnc(-c2ccc(C(N)=O)c(C)c2)c1 , EC50 reported as 25 to 100 nM

Entry CSc1ccc(OCc2ccnc(-c3ccc(C(N)=O)c(C)c3)c2)cc1 , EC50 reported as 25 to 100 nM

Entry COc1ccc(OCc2ccnc(-c3ccc(C(N)=O)c(C)c3)c2)cc1 , EC50 reported as 101 to 1000 nM

Entry Cc1ccc(OCc2ccnc(-c3ccc(C(N)=O)c(C)c3)c2)c(Cl)c1 , EC50 reported as < 25 nM

Entry Cc1cc(-c2cc(COc3ccc(F)c(Cl)c3)ccn2)ccc1C(N)=O , EC50 reported as < 25 nM

Entry CC(=O)c1cccc(OCc2ccnc(-c3ccc(C(N)=O)c(C)c3)c2)c1 , EC50 reported as 101 to 1000 nM

Entry Cc1cc(-c2cc(COc3ccc(F)cc3Cl)ccn2)ccc1C(N)=O , EC50 reported as 101 to 1000 nM

Entry Cc1cc(-c2cccc(COc3cccc(C(F)(F)F)c3)n2)ccc1C(N)=O , EC50 reported as > 1000 nM

Entry COc1ccc(OCc2ccnc(-c3ccc(C(N)=O)c(C)c3)c2)cc1F , EC50 reported as < 25 nM

Entry Cc1cc(-c2cc(COc3ccc(C(F)(F)F)cc3)ccn2)ccc1C(N)=O [Example 1, hydrochloride] , EC50 reported as 25 to 100 nM

Entry NC(=O)c1ccc(-c2cc(COc3ccc(C(F)(F)F)cc3)ccn2)cc1C(F)(F)F , EC50 reported as 25 to 100 nM

Entry Cc1cc(-c2cc(COc3ccc(C(F)(F)F)c(F)c3)ccn2)ccc1C(N)=O , EC50 reported as < 25 nM

Entry Cc1cc(-c2ccnc(COc3cc(F)c(F)c(F)c3)c2)ccc1C(N)=O , EC50 reported as 101 to 1000 nM

Entry Cc1cc(-c2cc(COc3cc(F)cc(F)c3)ccn2)ccc1C(N)=O , EC50 reported as 25 to 100 nM

Entry COc1cc(OCc2cncc(-c3ccc(C(N)=O)c(C)c3)c2)ccc1C(F)(F)F , EC50 reported as 101 to 1000 nM

Entry COc1cncc(OCc2ccnc(-c3ccc(C(N)=O)c(C)c3)c2)c1 , EC50 reported as 101 to 1000 nM

Entry Cc1ccc(OCc2ccnc(-c3ccc(C(N)=O)c(C)c3)c2)cc1F , EC50 reported as 101 to 1000 nM

Entry CCC(=O)c1ccc(OCc2ccnc(-c3ccc(C(N)=O)c(C)c3)c2)cc1 , EC50 reported as 101 to 1000 nM

Entry COc1ccc(OCc2ccnc(-c3ccc(C(N)=O)c(C)c3)c2)c2ccccc12 , EC50 reported as 101 to 1000 nM

Entry COc1cc(Cl)ccc1OCc1ccnc(-c2ccc(C(N)=O)c(C)c2)c1 , EC50 reported as 25 to 100 nM
